Molecular target: α7 nAChR (Rattus norvegicus)
Construct: Rat brain tissue (hippocampus or whole brain) is homogenized in homogenization buffer; from tissue; host or cells: rat brain (hippocampus or whole brain), P2 membrane fraction
Assay: Affinity for α7 nAChR by inhibition of [3H]-methyllycaconitine binding to rat brain membranes
pKi: −log10 of the molar value. Counter-ions that a name gives are not always drawn.
Property Label: pKi

                                   compound  measured_number
0  CC(C)(O)c1ccc(-c2ccc(NC(=O)[C@H]3CN4CCC3CC4)cc2)cc1 [Example 20]             8.00
1  O=C(Nc1ccc(-c2ccc(CO)c(F)c2)cc1)[C@H]1CN2CCC1CC2 [Example 22]             7.24
2  NC(=O)c1ccc(-c2ccc(NC(=O)[C@H]3CN4CCC3CC4)cc2)cc1 [Example 21, Hydrochloride]             7.01
3  O=C(CC1CN2CCC1CC2)Nc1cccc(-c2ccc(CO)cc2)c1 (stereo not shown) [Example 9, Hydrochloride]             6.28
4  O=C(Nc1ccc(-c2ccc(CO)cc2)cc1)[C@H]1CN2CCC1CC2 [Example 14, Hydrochloride]             7.70
5  CNC(=O)OCc1ccc(-c2ccc(NC(=O)[C@H]3CN4CCC3CC4)cc2)cc1 [Example 23]             7.41
6  O=C(Nc1ccc(-c2ccc(CO)cc2)cc1)[C@@H]1CN2CCC1CC2 [Example 15, Hydrochloride]             7.41

----------
Target: α7 nAChR (Rattus norvegicus, UniProt Q05941)
Construct: Rat brain tissue (hippocampus or whole brain) is homogenized in homogenization buffer; from tissue; host or cells: rat brain (hippocampus or whole brain), P2 membrane fraction
Sequence (Q05941 23-502): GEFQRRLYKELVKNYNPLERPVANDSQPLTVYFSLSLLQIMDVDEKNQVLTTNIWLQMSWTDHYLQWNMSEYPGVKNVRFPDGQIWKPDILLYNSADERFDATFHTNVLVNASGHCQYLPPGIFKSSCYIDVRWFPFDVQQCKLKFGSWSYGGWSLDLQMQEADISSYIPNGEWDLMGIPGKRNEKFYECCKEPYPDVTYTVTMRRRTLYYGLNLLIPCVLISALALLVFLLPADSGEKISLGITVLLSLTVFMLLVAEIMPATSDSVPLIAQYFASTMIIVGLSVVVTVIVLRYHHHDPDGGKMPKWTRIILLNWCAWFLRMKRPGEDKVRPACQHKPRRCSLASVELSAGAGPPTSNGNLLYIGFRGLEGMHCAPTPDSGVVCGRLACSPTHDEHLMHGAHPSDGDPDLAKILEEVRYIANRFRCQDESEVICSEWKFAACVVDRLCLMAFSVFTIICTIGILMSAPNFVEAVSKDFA
Experiment: Affinity for α7 nAChR by inhibition of [3H]-methyllycaconitine binding to rat brain membranes
Settings: [3H]-methyllycaconitine displacement, rat brain P2 membranes, 21° C., 2.5 h; Ki=IC50/(1+L/KD); read-out: Ki
Items are presented alongside their recorded Ki.
Property Label: Ki

>>> print(df.to_string())
                                   compound  result
0  CC(=O)c1ccc(-c2ccc(NC(=O)CC3CN4CCC3CC4)cc2)cc1 (stereo not drawn)  310 nM
1  CC(C)NC(=O)OCc1ccc(-c2ccc(NC(=O)[C@H]3CN4CCC3CC4)cc2)cc1  230 nM
2  CC(=O)c1ccccc1-c1ccc(NC(=O)CC2CN3CCC2CC3)cc1 (stereo not drawn)  420 nM
